Experiment: E. coli DRC41 culture turbidity changes, primary screen, E. coli filamentation inducer project, strain DRC41, OD650, 48 h (AID 1152);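 also: E. coli MC1000 strain DRC41 lacking acrAB efflux pump and sulA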
Conditions: E. coli DRC41 (acrAB sulA), higher = more signal, called active from +8 up or from −8 down
Active and inactive are the calls of the source.
recordedEndpoint: z-score

Problem: Let me know recorded z-score for `COc1ccc(C#Cc2ccc3c(c2)[C@]2(C(=O)N3)[C@H](c3ccc(O)cc3)N3[C@H](c4ccccc4)[C@H](c4ccccc4)OC(=O)[C@H]3[C@@H]2C(=O)O)cc1` , thanks.
Solution: 1.09 (inactive)

Problem: Let me know recorded z-score for `COC(=O)[C@@]1(Cc2ccc(OC)cc2)[C@H]2c3cc(C(=O)N4CCCC4)n(Cc4c(-c5ccccc5)noc4C)c3C[C@H]2CN1C(=O)c1ccccc1` , thanks.
Solution: -0.615 (inactive)

Problem: Let me know recorded z-score for `Cc1ccc(S[C@]2(C(=O)O)CC(=O)N(Cc3ccccc3Cl)[C@@H]2c2ccc(CO)cc2I)cc1` , thanks.
Solution: -0.754 (inactive)

Problem: Let me know recorded z-score for CC1CC/C=C\[C@H]2OC34C=CCN(C(C)C)C(=O)[C@H]3N(CCCCCCO)C(=O)[C@@H]4C2C(=O)O1 (some centres not stated) , thanks.
Solution: 3.07 (inactive)

Problem: Let me know recorded z-score for OCCCC1=CC(c2ccc(CN3CCCC3)cc2)N(Cc2sc3ccccc3c2Cl)CC1 (configuration not stated) , thanks.
Solution: -1.6 (inactive)

Problem: Let me know recorded z-score for `CCOC(=O)c1ccc(NC(=O)O[C@H]2[C@H](OC(=O)Nc3ccc4c(c3)OCO4)[C@H](OC(=O)Nc3ccc4c(c3)OCO4)[C@@H](OC)O[C@@H]2CO)cc1` , thanks.
Solution: -0.351 (inactive)

Problem: Let me know recorded z-score for `COC(=O)c1ccc([C@H](NC(=O)c2ccco2)[C@]2(C)C[C@H]2C2CCCCC2)cc1` , thanks.
Solution: -2.39 (inactive)

----------
Experiment: A549 lung cancer cell viability effects, profiling panel, resazurin fluorescence, 24 h, PK04 Diversity Set (AID 1171); also: test concentration not given here
Conditions: higher = more signal, called active from +8 up or from −8 down
Threshold check on z-score: at or above -0.4 gives 1.0, strictly below gives 0.0.

Example entries and their recorded answers appear below.
compound: CC(C)N1CC=CC23O[C@@H]4C=CCOC(=O)[C@@H]4[C@H]2C(=O)N(CCCO)[C@@H]3C1=O (some centres not stated)
class: 1.0
//
compound: COc1ccc([Si](C)(C)[C@@H]2[C@@H](CCn3cc([C@H](O)c4ccccc4)nn3)O[C@]3(C(=O)N(Cc4ccc(N5CCC5=O)cc4)c4ccccc43)[C@H]2C)cc1
class: 1.0
//
compound: [N-]=[N+]=NCc1ccccc1C[C@@]1(C(=O)N2CCCCC2)N=C(c2ccc(OCCCO)cc2)O[C@@H]1c1ccccc1
class: 0.0
//
compound: CCOC(=O)C[C@H]1[C@H](OC(=O)c2ccc(C(=O)c3ccccc3)cc2)[C@@H](NC(=O)Cc2ccc(OC)cc2)c2cc(OCCCO)ccc2N1C(=O)c1ccccc1
class: 1.0
//
compound: O=C1NC(=O)C2C1C=CC(C(O)CCc1ccccc1)N2Nc1ccc(Cl)cc1Cl (configuration not stated)
class: 0.0

As a next step, examine the compound that follows.
Problem: Is z-score at least -0.4? Consider `NCCCCCNC(=O)[C@@H]1C[C@@H]2C(=O)NCC(=O)N2[C@@H]1c1cccc(OCCO)c1`
Solution: 0.0
